study_system: DRB1*0901 (Homo sapiens, UniProt P01903+P01911, A100R/A103E/D57H/D86V/F55Y/F60I/F76Y/I96F/K127E/L162R/M171V/P40D/Q125H/Q99R/R33Q/R42F/S133A/S66N/T210M/V115G/W38K/Y107V/Y59G/Y89S)
procedure_text: biochemical
Type: binding
quantity_name: pIC50
Value format note: pIC50 is -log10 of concentration (mol/L); just state the number.

INSERT INTO results (compound, endpoint_value) VALUES
  ('CC[C@H](C)[C@H](NC(=O)CNC(=O)[C@H](CCC(=O)O)NC(=O)[C@H](Cc1c[nH]cn1)NC(=O)[C@@H](NC(=O)[C@H](Cc1ccc(O)cc1)NC(=O)[C@H](Cc1ccc(O)cc1)NC(=O)[C@H](CC(C)C)NC(=O)CN)C(C)C)C(=O)N[C@@H](CCCNC(=N)N)C(=O)N[C@H](C(=O)N[C@@H](Cc1ccc(O)cc1)C(=O)N[C@@H](Cc1ccccc1)C(=O)N[C@H](C(=O)N[C@@H](CCC(N)=O)C(=O)O)C(C)C)[C@@H](C)O [Peptide 90.0171]', 6.00);

Exercise: Query (compound): CC[C@H](C)[C@H](NC(=O)[C@H](Cc1c[nH]cn1)NC(=O)[C@H](C)NC(=O)[C@H](Cc1ccc(O)cc1)NC(=O)[C@H](CC(C)C)NC(=O)[C@@H](NC(=O)[C@H](Cc1ccccc1)NC(=O)[C@@H]1CCCN1C(=O)[C@H](CCC(N)=O)NC(=O)[C@@H](NC(=O)[C@H](CC(C)C)NC(=O)[C@@H](NC(=O)[C@H](CCCCN)NC(=O)[C@@H](N)Cc1ccccc1)[C@@H](C)O)[C@@H](C)CC)[C@@H](C)CC)C(=O)N[C@@H](CCC(N)=O)C(=O)O [Peptide 89.0025] ; field requested: pIC50
Solution: 7.01

Exercise: Item: CC[C@H](C)[C@H](NC(=O)[C@@H](NC(=O)[C@@H]1CCCN1C(=O)[C@@H](NC(=O)[C@@H](NC(=O)[C@H](CC(N)=O)NC(=O)CNC(=O)[C@H](CO)NC(=O)[C@H](CS)NC(=O)[C@@H](NC(=O)[C@H](CCCCN)NC(=O)[C@@H](N)CCCNC(=N)N)C(C)C)[C@@H](C)O)[C@@H](C)O)[C@@H](C)CC)C(=O)N[C@@H](Cc1c[nH]cn1)C(=O)N[C@@H](CC(C)C)C(=O)N[C@@H](CCCCN)C(=O)O [Peptide 1601.43]
Solution: 5.95

Exercise: And then CC[C@H](C)[C@H](NC(=O)[C@H](Cc1c[nH]c2ccccc12)NC(=O)[C@H](CCC(=O)O)NC(=O)[C@@H]1CCCN1)C(=O)N[C@@H](CCC(=O)O)C(=O)N[C@@H](CCCNC(=N)N)C(=O)N[C@@H](CCC(N)=O)C(=O)N[C@H](C(=O)N[C@H](C(=O)N[C@@H](CC(C)C)C(=O)N[C@@H](CCC(N)=O)C(=O)N[C@@H](Cc1c[nH]cn1)C(=O)N[C@@H](CO)C(=O)N[C@@H](Cc1ccccc1)C(=O)N[C@@H](CC(N)=O)C(=O)O)C(C)C)[C@@H](C)O [Peptide 89.0049] , what is it?
Solution: 5.34
